Experiment: Solubility of the compound in PBS buffer at pH 6.5 measured after 24 hrs by LC-MS/MS analysis
Format: physicochemical
The recorded solubility at 24 h of each item maps onto one of these classes: low interval (below 1 µg/mL), middle interval (1 µg/mL to below 10 µg/mL), high interval (10 µg/mL or more)

Classify this compound: CC[C@@H](NC(=O)c1cn(-c2ccc(F)cc2F)c2nc(N3C[C@@H](O)CC3=O)ccc2c1=O)C(F)(F)F middle interval

###

Experiment: Fraction unbound in human plasma
Type: ADME, cell-free
assayReadout: fraction unbound
A bare number is all that is needed in reply.

The following compounds have reported results that may help.
CCC(NC(=O)c1cn(-c2c(F)cc(F)cc2F)c2nc(N3C[C@@H](O)[C@H](O)C3)ccc2c1=O)C(F)(F)C(F)(F)F (single isomer, unassigned; diastereomer 1)    0.018
O=C(N[C@@H](C1CC1)C(F)(F)F)c1cn(-c2c(F)cc(F)cc2F)c2nc(N3C[C@@H](O)[C@H](O)C3)ccc2c1=O    0.033
CC[C@@H](NC(=O)c1cn(-c2c(F)cccc2F)c2nc(N3C[C@@H](O)CC3=O)ccc2c1=O)C(F)(F)F    0.023

Item CC[C@H](NC(=O)c1cn(-c2c(F)cc(F)cc2F)c2nc(N3C[C@@H](O)CC3=O)ccc2c1=O)C(F)(F)F has what recorded fraction unbound? 0.03

###

Experiment: Tmax in Wistar rat at 1 mg/kg, po by LC-MS/MS analysis
Type: ADME, organism-based
Conditions: in vivo
assayReadout: Tmax (h)
Quick reminder: number only, in h, skip the unit.

Item CCC(NC(=O)c1cn(-c2c(F)cc(F)cc2F)c2nc(N3C[C@@H](O)[C@H](O)C3)c(F)cc2c1=O)C(F)(F)C(F)(F)F (single isomer, unassigned; diastereomer 1) has what recorded Tmax? 6

###

Target: UniProt:P08172
Sequence (P08172 whole entry): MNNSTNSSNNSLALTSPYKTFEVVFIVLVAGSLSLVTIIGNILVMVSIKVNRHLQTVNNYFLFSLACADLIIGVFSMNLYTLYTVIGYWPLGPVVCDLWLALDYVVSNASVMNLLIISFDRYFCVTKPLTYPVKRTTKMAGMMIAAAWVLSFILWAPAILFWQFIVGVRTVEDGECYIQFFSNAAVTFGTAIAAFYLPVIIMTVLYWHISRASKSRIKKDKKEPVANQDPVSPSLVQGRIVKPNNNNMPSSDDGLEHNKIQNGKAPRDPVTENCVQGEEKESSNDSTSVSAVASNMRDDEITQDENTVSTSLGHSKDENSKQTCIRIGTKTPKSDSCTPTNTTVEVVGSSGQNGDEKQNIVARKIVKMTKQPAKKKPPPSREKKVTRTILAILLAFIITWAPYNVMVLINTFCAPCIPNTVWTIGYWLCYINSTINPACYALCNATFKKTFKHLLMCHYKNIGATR
Test: Displacement of [3H]7-[(3R,4R)-3,4-Dihydroxypyrrolidin-1-yl]-6-fluoro-4-oxo-N-[3,3,4,4,4-pentafluorobutan-2-yl]-1-(2,4,6-trifluorophenyl)-1,4-dihydro-1,8-naphthyridine-3-carboxamide from human M2 muscarinic acetylcholine receptor expressed in CHO-S cells in presence of acetylcholine by competitive radioligand binding assay
assayReadout: pKi
In plain terms, pKi is the concentration in mol/L turned into minus its base-10 logarithm.

Item COc1nc2sc(C(=O)NC3CC3)c(N)c2c(C)c1Cl has what recorded pKi? 5.52

###

Assay: Intrinsic clearance in rat hepatocytes measured for 90 mins by LC-MS/MS analysis
Assay type: ADME, cell-based, Hepatocyte
Details: read-out: CLH (converted)
assayReadout: predicted hepatic blood clearance at […] (mL/min/kg)
Quick reminder: number only, in mL/min/kg, skip the unit.

The following molecules have reported results that may help.
O=C(NC1(C(F)(F)F)CCC1)c1cn(-c2c(F)cc(F)cc2F)c2nc(N3C[C@@H](O)[C@H](O)C3)ccc2c1=O    58.3
CC[C@@H](NC(=O)c1cn(-c2c(Cl)cc(F)cc2Cl)c2nc(N3C[C@@H](O)CC3=O)ccc2c1=O)C(F)(F)F    31.7
CC[C@H](NC(=O)c1cn(-c2c(F)cccc2F)c2nc(N3C[C@@H](O)CC3=O)ccc2c1=O)C(F)(F)F    25
O=C(Nc1c(Cl)cccc1Cl)c1cn(-c2ccc(F)cc2F)c2nc(N3C[C@@H](O)CC3=O)ccc2c1=O    26.7
CC(C)(C)C(NC(=O)c1cn(-c2c(F)cc(F)cc2F)c2nc(N3C[C@@H](O)[C@H](O)C3)c(F)cc2c1=O)C(F)(F)C(F)(F)F (single isomer, unassigned; diastereomer 2)    51.7
O=C(N[C@@H](C1CC1)C(F)(F)F)c1cn(-c2c(F)cc(F)cc2F)c2nc(N3C[C@@H](O)[C@H](O)C3)ccc2c1=O    18.3
CC(C)(C)[C@H](NC(=O)c1cn(-c2c(F)cc(F)cc2F)c2nc(N3C[C@@H](O)[C@H](O)C3)ccc2c1=O)C(F)(F)F    41.7
CC[C@H](NC(=O)c1cn(-c2c(F)cc(F)cc2F)c2nc(N3C[C@@H](O)[C@H](O)C3)ccc2c1=O)C(F)(F)F    21.7

Shift focus to the following entry.
Item O=C(NC1(C(F)(F)F)CCCC1)c1cn(-c2c(F)cc(F)cc2F)c2nc(N3C[C@@H](O)[C@H](O)C3)ccc2c1=O has what recorded predicted hepatic blood clearance at […]? 60

The values you see were collected from ChEMBL document CHEMBL6083268.
